Target: T1, GST-APXL-1 PDZ domain 1 (Homo sapiens (Human)), Q13796
T1 chain: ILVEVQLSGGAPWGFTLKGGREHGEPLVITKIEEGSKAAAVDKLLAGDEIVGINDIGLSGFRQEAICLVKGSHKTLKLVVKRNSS
Test: G' assay; note: key of the grades not given here
Below, each entry is listed with its recorded Classification.

binder	Classification
QQYQQRQSVIFHKRAPEQAL (modifications not checked) [muscarinic Ach receptor M4]	1 A450 class
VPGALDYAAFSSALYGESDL (modifications not checked) [a-actinin 2]	5 A450 class
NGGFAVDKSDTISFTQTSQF (modifications not checked) [glutamate transporter 3]	1 A450 class
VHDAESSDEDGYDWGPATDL (modifications not checked) [zona occludens 3 (ZO-3) PL peptide]	2 A450 class
LLNVLQRQELGDGLDDEIAV (modifications not checked) [CAPON (carboxyl-terminal PDZ ligand of neuronal nitric oxide synthase) mRNA]	1 A450 class

[ask] Using known records, supply Classification for DAKLKSDGTIAAITEKETHF (modifications not checked) [GABA transporter 3]
[reply] 1 A450 class

[ask] Return reported Classification. Input binder: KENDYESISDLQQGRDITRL (modifications not checked) [PAG]
[reply] 2 A450 class

[ask] Give Classification for DFRPSFKHILFRRARRGFRQ (modifications not checked) [alpha-2C Adrenergic receptor]
[reply] 3 A450 class

[ask] Determine from records and report Classification for RPMESNPDTEGAQGETEDVL (modifications not checked) [parathyroid hormone receptor 2]
[reply] 1 A450 class

[ask] Return Classification (reported value) for this binder: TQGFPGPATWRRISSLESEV (modifications not checked) [NMDA Glutamate Receptor 2C (cysteine-free)]
[reply] 1 A450 class

[ask] For the binder AWDDSARAAGGQGLHVTAL (modifications not checked) [LPAP] , give its reported Classification.
[reply] 1 A450 class

[ask] Determine its reported Classification: YSATYSELEDPGEMSPPIDL (modifications not checked) [FceRlb]
[reply] 1 A450 class

[ask] Tell us which Classification value is on record for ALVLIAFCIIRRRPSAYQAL (modifications not checked) [CD68]
[reply] 2 A450 class

[ask] Please supply the value of reported Classification for the item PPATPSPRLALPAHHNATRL (modifications not checked) [Na+/Pi cotransporter 2]
[reply] 1 A450 class

[ask] Using known records, supply Classification for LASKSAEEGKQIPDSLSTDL (modifications not checked) [DOCK2]
[reply] 2 A450 class

[ask] Output Classification of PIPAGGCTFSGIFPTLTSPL (modifications not checked) [KIA 1481]
[reply] 5 A450 class

[ask] Name the recorded Classification of the item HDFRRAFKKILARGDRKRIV (modifications not checked) [alpha-2A Adrenergic receptor] in your answer.
[reply] 1 A450 class

[ask] Specify measured Classification for SSKSKSSEESQTFFGLYKL (modifications not checked) [Fas Ligand] .
[reply] 2 A450 class
